Collected TGI values appear next to each entry.
# Test system: SK-MEL-2 melanoma
# ASSAY_REMARKS: NCI tumour cell line growth inhibition, 48 h
MEASURE: TGI

[[record]]
compound = "COc1ccc(CC(=O)c2cc(OC)c(OC)cc2C)cc1OC"
result = "> 100 µM"

[[record]]
compound = "c1cnc2c(c1)-n1cccc1C1(CCOCC1)NN2"
result = "> 100 µM"

[[record]]
compound = "COc1ccc(C(=O)C2CC3(CCC2(O)c2ccc(OC)cc2)CC(=O)Nc2ccccc2C3=O)cc1 (stereo unspecified)"
result = "> 100 µM"

[[record]]
compound = "C=C/C(C)=C/[C@H](C)C(=O)C[C@H](O)CC1CC(=O)NC(=O)C1"
result = "> 100 µM"

[[record]]
compound = "CCc1nc2c(O)ccc(O)c2nc1C"
result = "32.2 µM"

[[record]]
compound = "N#C/C(=C\\c1ccc(CP(=O)(O)O)cc1)C(N)=O"
result = "> 100 µM"


* * *

# Tested on: HCT-15 colon
# ASSAY_REMARKS: NCI tumour cell line growth inhibition, 48 h
MEASURE: TGI

[[record]]
compound = "O=C1CCC2(c3ccc(F)cc3)Nc3ccccc3N12 (stereo unspecified)"
measure = "TGI"
result = "> 100 µM"

[[record]]
compound = "CC1=C/C(=C(\\c2ccc(N(C)C)cc2)c2ccc([N+](C)(C)C)cc2)C=CC1=[N+](C)C"
measure = "TGI"
result = "> 100 µM"

[[record]]
compound = "N#C/C(=C\\c1ccc(CP(=O)(O)O)cc1)C(N)=O"
measure = "TGI"
result = "> 100 µM"

[[record]]
compound = "O=C(NNc1nc2cc(F)ccc2n2c(CN3CCOCC3)ccc12)c1ccccc1"
measure = "TGI"
result = "1.41 µM"

[[record]]
compound = "O=C(NCCNCCO)N/N=C/c1cccc([N+](=O)[O-])c1"
measure = "TGI"
result = "> 100 µM"

[[record]]
compound = "CC1=CC[C@@H]2[C@@H](CC[C@@]2(C)O)C(C)(C)[C@H]1CC[C@@H]1[C@@]2(C)CCC(=O)C(C)(C)O[C@@H]2CC[C@]1(C)O"
measure = "TGI"
result = "34.3 µM"

[[record]]
compound = "Nc1nc2ncn(CCO)c2c(=O)[nH]1"
measure = "TGI"
result = "> 100 µM"

[[record]]
compound = "COC(=O)[C@]1(C)CCCn2c(=O)n(-c3ccccc3)c(=O)n21"
measure = "TGI"
result = "> 100 µM"

[[record]]
compound = "CN(C)[C@@H]1C(=O)C(C(N)=O)=C(O)[C@@]2(O)C(=O)C3=C(O)c4c(O)cccc4C[C@H]3C[C@@H]12"
measure = "TGI"
result = "22 µM"

[[record]]
compound = "C=C1C(=O)O[C@@H]2C[C@]3(C)[C@@H](C[C@H]12)[C@](C)(O)CC[C@@H]3O"
measure = "TGI"
result = "> 100 µM"

[[record]]
compound = "O=C1c2ccn(CCCCN3CCOCC3)c2C(=O)c2c1c(O)c1ccccc1c2O"
measure = "TGI"
result = "25.5 µM"

[[record]]
compound = "O=c1c2cc([N+](=O)[O-])ccc2n2n1Cc1ccccc1CC2"
measure = "TGI"
result = "> 100 µM"

[[record]]
compound = "CN(C(=O)C1CCCCC1)c1ccccc1I(=O)=O"
measure = "TGI"
result = "59.2 µM"

[[record]]
compound = "N#CI1OC(=O)c2ccccc21"
measure = "TGI"
result = "> 100 µM"

[[record]]
compound = "O=c1cnn(C2OC(CO)C(O)C(F)C2O)c(=O)[nH]1 (stereo unspecified)"
measure = "TGI"
result = "> 100 µM"

[[record]]
compound = "O=C1Nc2ccc(Cl)cc2/C1=C\\c1c(-c2ccc(F)cc2)nc2ccccn12"
measure = "TGI"
result = "16.2 µM"

[[record]]
compound = "O=[N+]([O-])/C(C(Cl)=C(Cl)Cl)=C1\\Nc2ccccc2O1"
measure = "TGI"
result = "> 100 µM"

[[record]]
compound = "Nc1cc2c(cc1[N+](=O)[O-])[nH]c1c(-c3ccccc3)nccc12"
measure = "TGI"
result = "> 57.3 µM"

[[record]]
compound = "OCC(O)CC[CH2][Sn]([c]1ccccc1)([c]1ccccc1)[c]1ccccc1 (stereo unspecified)"
measure = "TGI"
result = "26.8 µM"

[[record]]
compound = "COc1ccc2nc3ccc(OC)cc3c(S(=O)Cc3ccc([N+](=O)[O-])cc3)c2c1 (stereo unspecified)"
measure = "TGI"
result = "10.5 µM"

[[record]]
compound = "COc1nc(OC)c2c(=O)oc(-c3ccccc3)cc2n1"
measure = "TGI"
result = "> 100 µM"

[[record]]
compound = "C/C(=N\\Nc1nc2cc(C)ccc2s1)c1ccccn1"
measure = "TGI"
result = "30.3 µM"

[[record]]
compound = "Cc1cccc(C)c1NC(=O)CCC(=O)NNC(=O)c1cc(O)c2ccccc2c1"
measure = "TGI"
result = "> 100 µM"

[[record]]
compound = "N#Cc1c(-c2ccco2)c2c(n(C3OC(CO)C(O)C(O)C3O)c1=S)CCCC2 (stereo unspecified)"
measure = "TGI"
result = "> 100 µM"

[[record]]
compound = "O=S(=O)(O)c1cc(Cl)c(O)c2ncc(Cl)cc12"
measure = "TGI"
result = "> 100 µM"

[[record]]
compound = "CC(C)CN1CN(c2ccccc2)C2(CCN(CC(C)(c3ccc(F)cc3)C3OCCO3)CC2)C1=O (stereo unspecified)"
measure = "TGI"
result = "16.6 µM"

[[record]]
compound = "COC(=O)c1ccc(CN2CCc3c([nH]c4ccccc34)C2CO)o1 (stereo unspecified)"
measure = "TGI"
result = "> 10 µM"

[[record]]
compound = "CC(=O)N[C@@H](Cc1ccc(O)cn1)C(=O)NCc1cccc(F)c1"
measure = "TGI"
result = "> 100 µM"

[[record]]
compound = "CC1(C)CCc2c(cc3c(c2O)CCC(C)(C)O3)O1"
measure = "TGI"
result = "> 100 µM"

[[record]]
compound = "COC(=O)OC[C@H]1O[C@@H](n2cc(C)c(=O)[nH]c2=O)CC1OC(=O)OC (stereo partly specified)"
measure = "TGI"
result = "> 100 µM"

[[record]]
compound = "O=C(Cn1ccnc1[N+](=O)[O-])N(CCO)CCO"
measure = "TGI"
result = "> 1250 µM"

[[record]]
compound = "COc1ccc(C(CC(=O)c2ccccc2)C(C(=O)c2ccccc2)C(c2ccc(OC)cc2)C2C(=O)NC(=O)NC2=O)cc1 (stereo unspecified)"
measure = "TGI"
result = "> 100 µM"

[[record]]
compound = "COc1ccc2c(c1O)-c1c(OC)c(OC)cc3c1[C@H](C2)[N+](C)(C)CC3"
measure = "TGI"
result = "> 100 µM"

[[record]]
compound = "COc1ccc2c(c1)C(=O)c1c-2c(NCCCN(C)C)nc2ccccc12"
measure = "TGI"
result = "3.2 µM"

[[record]]
compound = "O=S(=O)(Nc1ccc(-c2nc(-c3cccc(OCCN4CCOCC4)c3)c(-c3ccnc(Br)c3)[nH]2)cc1)c1ccccc1"
measure = "TGI"
result = "6.79 µM"

[[record]]
compound = "CN(CCNC(=O)c1[nH]nc2c1ccc1ccccc12)CCNC(=O)c1[nH]nc2c1ccc1ccccc12"
measure = "TGI"
result = "46.7 µM"

[[record]]
compound = "[Cu+2].[Cu+2].[O-]c1ccccc1C=Nc1ccccc1[O-].[O-]c1ccccc1C=Nc1ccccc1[O-]"
measure = "TGI"
result = "21.5 µM"

[[record]]
compound = "CCOC(=O)c1ccc(NC2Oc3cc4c(cc3C(c3cc(OC)c(OC)c(OC)c3)C2C)OCO4)cc1 (stereo unspecified)"
measure = "TGI"
result = "> 54.6 µM"

[[record]]
compound = "Cc1cc(Br)c(N2C3=C(CC4=C2CCCC4=O)C(=O)CCC3)c(Br)c1"
measure = "TGI"
result = "> 100 µM"

[[record]]
compound = "O=C1OCC(c2ccc(O)c(O)c2)=C1c1cc(O)c(O)c(O)c1"
measure = "TGI"
result = "44.1 µM"

[[record]]
compound = "CCOC(C)OCC#CCCBr (stereo unspecified)"
measure = "TGI"
result = "> 100 µM"

